# SYSTEM UNDER TEST: Human KCNQ2/3 channel (Homo sapiens (Human), UniProt O43525+O43526)
# EXPERIMENT NOTES: Opening action with respect to KCNQ2/3 channel by depolarization stimulation (thallium influx, FLIPR)
# CONDITION SUMMARY: concentration giving 50% of maximum reaction of retigabine (10 μM); human KCNQ2/3 expression CHO-DHFR- cells; 5 mM potassium and 0.5 mM thallium; read-out: KCNQ2/3 ECrtg50
pEC50: −log10 of the molar value.
Assign class by pEC50: not lower than 7 means Yes; lower than 7 means No.

| MOLECULE | QUALITATIVE LABEL |
| --- | --- |
| CC(O)(c1cc(Cl)c(NC(=O)CCc2ccccc2C(F)(F)F)c(Cl)c1)C(F)(F)F (stereo not shown) | Yes |
| CC(C)(C)c1cc(CNC(=O)Nc2c(Cl)cc(C(C)(O)C(F)(F)F)cc2Cl)no1 (stereo not shown) | Yes |
| O=C(NCc1nc(C(F)(F)F)no1)Nc1c(Cl)cc([C@H](O)C(F)(F)F)cc1Cl | Yes |
| O=C(NCc1cnc(C(F)(F)F)s1)Nc1c(Cl)cc([C@@H](O)C(F)(F)F)cc1Cl | Yes |
| CC(C)(C)CC(=O)Nc1c(Cl)cc(C(C)(O)C(F)(F)F)cc1Cl (stereo not shown) | Yes |
| O=C(NCc1cnc(C(F)(F)F)nc1)Nc1c(Cl)cc([C@@H](O)C(F)(F)F)cc1Cl | No |

Okay, next one:
**Query** Textbook exercise: given the entry CC1(C)CC(CNC(=O)Nc2c(Cl)cc(C(C)(O)C(F)(F)F)cc2Cl)CCO1 (stereo not shown) , state whether its pEC50 is greater than or equal to 7.
**Result** No
